Recorded measurements of N-acetyl-L-ornithine, one per entry
Test system: P. falciparum 3D7 trophozoites
Assay: Metabolomic fingerprint profiling LC-MS
Assay type: cell-based, Plasmodium falciparum
Conditions: S2 Table Metabolomics; metabolite N-acetyl-L-ornithine
Just the number, please.

{"Compound": "C[n+]1c2ccccc2nc2ccc(NCCO)cc21 [MMV396693]", "N-acetyl-L-ornithine": -0.01449}
{"Compound": "COc1ccc(C(=O)Nc2nonc2-c2ccc(OC)c(OC)c2)cc1Cl [MMV011567]", "N-acetyl-L-ornithine": -1.047}
{"Compound": "COc1ccc(C=C2SC(=N)N(c3ccccc3OC)C2=O)cc1 [MMV666691]", "N-acetyl-L-ornithine": -0.04858}

GET /value?item= Cc1cc(Nc2ccc3ccccc3c2)n2ncnc2n1 [MMV011099] &field=N-acetyl-L-ornithine returns 0.1505

Query COc1cccc(C=Cc2nc(=O)c3ccccc3o2)c1OC [MMV666693] yields N-acetyl-L-ornithine of 0.2363

N-acetyl-L-ornithine reading for CCOc1ccc(-c2nonc2NC(=O)c2cccc(C)c2)cc1OCC [MMV665805] : -3.165

N-acetyl-L-ornithine recorded for this compound, COc1cc(OC)c(N(C)C(=O)c2cc3c(s2)-c2ccccc2S(=O)(=O)C3)cc1Cl [MMV006427] , is -2.077

The recorded N-acetyl-L-ornithine for entry Cc1cc(C)cc(Nc2cc(C)nc3nc(C(F)(F)F)nn23)c1 [MMV011259] equals -0.3462

Entry Cc1ccc(N2C3c4ccccc4N(S(=O)(=O)c4ccc(C)cc4)C2c2ccccc2N3S(=O)(=O)c2ccc(C)cc2)cc1 [MMV007160] , N-acetyl-L-ornithine reported as 0.3325
